B1: Peroxisome proliferator-activated receptor delta, residues 71 to 145; numbered along this chain, Q03181 (parent)
chain: NMECRVCGDKASGFHYGVHACEGCKGFFRRTIRMKLEYEKCERSCKIQKKNRNKCQYCRFQKCLALGMSHNAIRF

Variants of: B1
Test Details: abundance fitness (aPCA) (normalised: wild type 0, dead -1); higher = more abundant; growth selection in yeast, the domain comes from the species named
Conditions Used: Homo sapiens
Lab note: compare abundance fitness against -0.08. Equal or greater, write YES. Smaller, write NO.

Solved cases (3 shown):
F75A    YES
T31Q    NO
R59A    NO

Hi team, for Y38M , is the recorded abundance fitness at or above -0.08?
NO

Another variant to look at: G8D
NO

Another variant to look at: C24V
NO

Another variant to look at: E42G
NO

Another variant to look at: V6G
NO

Another variant to look at: V6A
NO

Another variant to look at: K46S
YES

Another variant to look at: C7W
NO

Another variant to look at: I47D
NO

Another variant to look at: D9G
NO

Another variant to look at: C24Q
NO

Another variant to look at: M68P
NO

Another variant to look at: R5C
NO

Another variant to look at: R52D
YES

Another variant to look at: E39V
YES

Another variant to look at: F14N
YES

Another variant to look at: R74T
YES
